biological target: Human immunodeficiency virus type 1 reverse transcriptase (Human immunodeficiency virus 1); assay: Inhibition of HIV1 reverse transcriptase p66/p51; settings: read-out: IC50
Please use T for IC50 under 0.02 µM and F for everything else, ties included.

Q. Strictly below 0.02 µM in IC50? Cc1cc(C)cc(S(=O)(=O)c2c(C(=O)N[C@H](C)C(N)=O)[nH]c3ccc(Cl)cc23)c1
A. T

Q. Strictly below 0.02 µM in IC50? Cc1cc(C)cc(S(=O)(=O)c2c(C(=O)NCCC(N)=O)[nH]c3ccc(Br)cc23)c1
A. F

Q. Strictly below 0.02 µM in IC50? Cc1cc(C)cc(S(=O)(=O)c2c(C(=O)NC(C)CC(N)=O)[nH]c3ccc(Cl)cc23)c1 (stereo not given)
A. F

Q. Strictly below 0.02 µM in IC50? Cc1cc(C)cc(S(=O)(=O)c2c(C(N)=O)[nH]c3ccc(Cl)c(F)c23)c1
A. T

Q. Strictly below 0.02 µM in IC50? Cc1cc(C)cc(S(=O)(=O)c2c(C(=O)N[C@H](C)CC(N)=O)[nH]c3ccc(Cl)cc23)c1
A. F

Source of measurements: ChEMBL document CHEMBL1153955
